MEASUREMENT_TARGET: EGFR L858R/T790M (Homo sapiens, UniProt P00533, L858R/T790M)
Construct: purchased Carna Bio
Sequence (P00533 25-1210 T790M/L858R): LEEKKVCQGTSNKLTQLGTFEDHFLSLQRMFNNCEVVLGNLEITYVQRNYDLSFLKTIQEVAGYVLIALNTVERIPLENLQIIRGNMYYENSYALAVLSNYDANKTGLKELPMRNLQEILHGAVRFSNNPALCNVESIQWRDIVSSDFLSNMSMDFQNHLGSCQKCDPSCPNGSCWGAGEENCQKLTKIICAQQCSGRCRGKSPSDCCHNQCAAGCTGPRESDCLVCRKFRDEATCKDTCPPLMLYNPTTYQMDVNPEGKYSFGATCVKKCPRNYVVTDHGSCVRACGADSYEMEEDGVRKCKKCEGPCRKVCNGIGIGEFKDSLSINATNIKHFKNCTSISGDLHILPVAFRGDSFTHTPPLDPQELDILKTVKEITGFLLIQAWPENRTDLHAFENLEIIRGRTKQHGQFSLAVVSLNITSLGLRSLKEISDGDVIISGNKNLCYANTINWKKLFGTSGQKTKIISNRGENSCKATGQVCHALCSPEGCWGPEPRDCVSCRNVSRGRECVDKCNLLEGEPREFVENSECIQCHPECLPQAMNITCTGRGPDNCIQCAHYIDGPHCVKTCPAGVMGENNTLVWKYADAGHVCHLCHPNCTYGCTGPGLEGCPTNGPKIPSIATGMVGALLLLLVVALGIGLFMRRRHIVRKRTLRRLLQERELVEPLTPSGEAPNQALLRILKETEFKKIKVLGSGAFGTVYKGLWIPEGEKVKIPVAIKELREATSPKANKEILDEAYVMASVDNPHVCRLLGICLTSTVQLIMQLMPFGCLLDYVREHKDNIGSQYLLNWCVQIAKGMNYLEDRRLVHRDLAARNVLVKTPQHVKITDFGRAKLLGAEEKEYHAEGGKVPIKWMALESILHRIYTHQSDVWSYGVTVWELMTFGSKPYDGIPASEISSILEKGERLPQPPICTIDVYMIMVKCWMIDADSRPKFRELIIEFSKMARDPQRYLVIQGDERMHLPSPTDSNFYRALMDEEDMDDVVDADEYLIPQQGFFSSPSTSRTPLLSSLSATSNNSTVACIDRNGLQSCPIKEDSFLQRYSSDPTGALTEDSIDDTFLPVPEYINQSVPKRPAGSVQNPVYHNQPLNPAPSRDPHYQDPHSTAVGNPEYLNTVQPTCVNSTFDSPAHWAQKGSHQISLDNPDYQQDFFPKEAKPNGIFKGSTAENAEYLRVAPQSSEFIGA
ASSAY_INFO: Inhibition of EGFR L858R/T790M biochemical enzymatic activity (HTRF)
TEST_SETTINGS: EGFR L858R-T790M, 1 mM ATP, 1 h, room temperature, read-out: IC50 (nM) @L858R-T790M
READOUT_TYPE: IC50

molecule="CN1CCC2CN(c3ccc4nc5n(c4c3)C34CCC(CN(CCOc6c(cnn6C)-c6cc(cn(C)c6=O)C(=O)N5)C3)C4)CC21 (single isomer, unassigned) [Example A79B]" recorded_value="12 nM"
molecule="CN(C)C1CCN(c2ccc3nc4n(c3c2)C23CCC(CN(CCOc5c(cnn5C)-c5cc(cn(C)c5=O)C(=O)N4)C2)C3)CC1 (single isomer, unassigned) [Example A64A]" recorded_value="> 5000 nM"

Please find the next molecule below.
What measured IC50 goes with CC(C)N1CCN(c2ccc3nc4n(c3c2)C23CCC(CN(CCOc5c(cnn5C)-c5cc(cn(C)c5=O)C(=O)N4)C2)C3)CC1 (single isomer, unassigned) [Example A108A] ?
> 5000 nM
